# Test system: M14 melanoma
# testSummary: NCI-60 one-dose screen, 48 h (100 = growth as untreated, 0 = no growth, -100 = all killed)
# testContext: 10 µM unless noted
# Description: Growth inhibition of the M14 human tumor cell line is measured as a screen for anti-cancer activity. Cells are grown in 96 well plates and exposed to the test compound for 48 hours. Compounds are tested at a single concentration, which is 10^-5 M for most compounds. The reported endpoint is percent growth (GI% or GIPRCNT), where numbers from 0 - 100% represent growth inhibition, and numbers from -100% - 0 represent cell death. For example, a value of 40 represents 60% growth inhibition. […]
The panel holds about 83,000 compounds, 20% with a hit somewhere; the sample as a whole holds those more often.
So I've got a bunch of molecules here, and I need their growth values.
Give bare numbers, in %.

CN(C)C(CNc1oc(-c2cccc3ccccc23)nc1C#N)c1ccco1 (stereo not drawn); 91.9
Clc1ccc2c(NCCCNC3CCCCC3)ccnc2c1; 89.8

With those in mind, consider the next molecule.
Request: Please give the documented growth of `O=C(Nc1ccc2ncnc(Nc3ccc(F)c(Cl)c3)c2c1)c1ccccc1`
Response: 90.1

====

# System: MCF7 breast
# testSummary: NCI-60 one-dose screen, 48 h (100 = growth as untreated, 0 = no growth, -100 = all killed)
# testContext: 10 µM unless noted
The panel holds about 83,000 compounds, 20% with a hit somewhere; the sample as a whole holds those more often. The source made the active and inactive calls. Rule for the calls: active = growth percent below 10; inactive = the rest.
attributeMeasured: growth

CCN(CC)c1ccc2c(c1)Oc1nc(N)c(C#N)c(N)c1C2Sc1ccc(OC)cc1 (stereo not drawn); 0.303% (active)
Cc1ccc(-c2nc(C#N)c(S(=O)(=O)N(C)CCO)o2)cc1; 39.8% (inactive)
COc1ccc(/C=C(/C(=O)N2CCN(Cc3ccccc3)CC2)c2cc(OC)c(OC)c(OC)c2)cc1O; 20.9% (inactive)
CC(=O)c1cc2c(N)c(C(=O)Nc3ccccn3)sc2nc1C; 73.2% (inactive)
c1ccc2nc(N3CCOCC3)c(N3CCCCC3)nc2c1; 93.8% (inactive)

Batch of 3 compounds: report growth for each.
1. COc1ccc2nc3nc4ccc[nH]c4cc3c2c1
2. Cc1ccccc1NC(=O)c1sc2nc(C)c(C(C)O)cc2c1N (stereo not drawn)
3. CCc1ccc(OCc2ccccc2C(=O)Nc2ccc3nc(C)cc(N)c3c2)cc1

Response:
["5.69% (active)", "21% (inactive)", "-70.2% (active)"]

Batch of 7 compounds: report growth for each.
1. COCCc1n(Cc2ccc3ccccc3c2)c2ccccc2[n+]1Cc1ccc2ccccc2c1
2. C=C1C(=O)O[C@H]2[C@H]1CC/C(COC(=O)CCCCCCCC(=O)OC/C1=C/CC[C@@]3(C)O[C@H]3[C@H]3OC(=O)C(=C)[C@@H]3CC1)=C\CC[C@@]1(C)O[C@@H]21
3. COc1cc(C2=NN(c3ccccc3)C(c3cccc(Nc4ccnc5cc(C(F)(F)F)ccc45)c3)C2)cc(OC)c1OC (stereo not drawn)
4. C=C1C(=O)O[C@H]2[C@H]1CC/C(COC(=O)Nc1nc3ccccc3[nH]1)=C\CC[C@@]1(C)O[C@@H]21
5. CCO/C=N/S(=O)(=O)c1cc2c(cc1Cl)NC=NS2(=O)=O
6. CCOC(=O)c1sc(/N=C2\NC(=O)/C(=C/c3ccc(N4CCN(C)CC4)cc3)S2)nc1C
7. Cc1cnc(SCc2ccc(Cl)cc2)[nH]c1=S

Response:
1: -68.1% (active); 2: 5.35% (active); 3: 80.6% (inactive); 4: 20.1% (inactive); 5: 96.2% (inactive); 6: 84% (inactive); 7: 95.6% (inactive)

Batch of 6 compounds: report growth for each.
1. Cc1ccn2c3c(c(C(=O)O)c2c1)C(=O)c1ccccc1C3=O
2. COc1cc2c(cc1OCCCOc1cc3c(cc1OC)C(=O)N1CC(F)(F)C[C@H]1C=N3)N=C[C@@H]1CC(F)(F)CN1C2=O
3. COc1cc(NC(=O)c2cc(O)c(C/C=C(\C)CCC=C(C)C)c(O)c2)cc2c1O[C@]1(C)CC[C@@H](O)C(C)(C)[C@H]1C2
4. Cn1c2c(c3ccc(-c4ccn[nH]4)cc3c1=O)C(=O)c1ccccc1-2
5. CCN(CC)CC#CCOC(=O)[C@]1(C)CCC[C@]2(C)[C@H]3C[C@H]4C(C(C)C)=C[C@]3(CC[C@H]21)[C@@H]1C(=O)CCC(=O)[C@@H]14
6. COc1ccc2nc(-c3ccc(Cl)cc3)cc(C(=O)N3N=C(c4ccc(N)cc4)CC3c3ccccc3)c2c1 (stereo not drawn)

Response:
["61.1% (inactive)", "13.8% (inactive)", "8.42% (active)", "9.04% (active)", "25.1% (inactive)", "11.9% (inactive)"]

====

# System: UO-31 renal
# testSummary: NCI-60 one-dose screen, 48 h (100 = growth as untreated, 0 = no growth, -100 = all killed)
# testContext: 10 µM unless noted
The panel holds about 83,000 compounds, 20% with a hit somewhere; the sample as a whole holds those more often.
Field 'label' (enum: class 1 / class 0). Set to class 1 when growth is strictly under 60%; else class 0.

O=C(O)c1cn(C2CC2)c2cc(N3CCN(Cc4nnc(Nc5ccccc5)o4)CC3)c(F)cc2c1=O; class 0
COc1ccc2c(c1)Oc1nc(N)c(C#N)c(N)c1C2Sc1ccc(SC)cc1 (centres undefined); class 1
COc1ccc(C2N(c3cc(OC)c(OC)c(OC)c3)C(=O)C2(F)F)cc1F (centres undefined); class 1

Request: Below 60% on growth? Entry `COc1cc(C2=N/C(=C\c3cc4ccccc4nc3Oc3ccccc3)C(=O)N2C(=N)N)cc(OC)c1OC`
Response: class 1

Request: Below 60% on growth? Entry `COc1ccc(/C(=N\O)c2cc(C)c(OC)c(C)c2)cc1O`
Response: class 1

Request: Below 60% on growth? Entry `COc1cc2nc3c(=O)n(CCN(C)C)cnn3c(=O)c2cc1OC`
Response: class 0

Request: Below 60% on growth? Entry `O=C(Nc1cc(Nc2ncccc2-c2ncnc3nc[nH]c23)ccc1F)c1cc(C(F)(F)F)cc(C(F)(F)F)c1`
Response: class 1

Request: Below 60% on growth? Entry `CCn1cc(C(=O)O)c(=O)c2cc(F)c(N3CCN(CC(=O)Nc4ccc(/C(C)=N/OC)cc4)CC3)cc21`
Response: class 0

Request: Below 60% on growth? Entry `C#C[C@@]1(O)[C@@H](CO)O[C@@H](n2cc(Br)c3c(N)ncnc32)[C@@H]1O`
Response: class 1

Request: Below 60% on growth? Entry `Nc1cccc(C(=O)Nc2ccc3c(O)c(N=Nc4ccc(N=Nc5ccc(S(=O)(=O)O)cc5)cc4)c(S(=O)(=O)O)cc3c2)c1`
Response: class 0

Request: Below 60% on growth? Entry N#CC1C(c2ccc(Cl)cc2)=Nc2c(c(-c3ccccc3)nn2-c2ccccc2)C12C(=O)Nc1ccc(Cl)cc12 (centres undefined)
Response: class 1

Request: Below 60% on growth? Entry COc1cc(C2CC(c3ccc(Nc4nc(NCCO)nc(NCCO)n4)cc3)=NN2c2cc(Cl)cc(Cl)c2)cc(OC)c1OC (centres undefined)
Response: class 1

Request: Below 60% on growth? Entry COc1cc(C2=NN(C(C)=O)C(c3cccc(Nc4ccnc5cc(C(F)(F)F)ccc45)c3)C2)cc(OC)c1OC (centres undefined)
Response: class 1

====

# System: HCT-116 colon
# testSummary: NCI-60 one-dose screen, 48 h
# testContext: 10 µM unless noted
# Protocol: Growth inhibition of the HCT-116 human tumor cell line is measured as a screen for anti-cancer activity. Cells are grown in 96 well plates and exposed to the test compound for 48 hours. Compounds are tested at a single concentration, which is 10^-5 M for most compounds. The reported endpoint is percent growth (GI% or GIPRCNT), where numbers from 0 - 100% represent growth inhibition, and numbers from -100% - 0 represent cell death. For example, a value of 40 represents 60% growth inhibition. […]
This is part of a sample that, as a whole, favours compounds with a hit. Of some 83,000 tested, about 20% had one in any assay. Calls of active or inactive are those of the source. How the source made its calls: active means growth percent below 10; inactive means the rest.
Please reply with one of these outcomes: y (active), n (inactive)

Use the examples below as a reference point.
COc1ccc(C2=NN(c3ccc(S(N)(=O)=O)cc3)C(c3ccc(Cl)cc3)C2)c(O)c1 (centres undefined); n
COc1ccc(-c2nc(C#N)c(NCC(c3ccco3)N3CCCC3)o2)cc1 (centres undefined); n
Cc1nc(C)c(C)nc1C; n
CC(C)(C#N)c1cc(F)cc(C(=O)Nc2cc(Nc3ncccc3-c3ncnc4nc[nH]c34)ccc2F)c1; n
CCSc1ccc(C2C(Br)C(=O)N2c2cc(OC)c(OC)c(OC)c2)cc1 (centres undefined); y
O=c1[nH]nc(-c2ccccc2)c2sc(NC(=S)Nc3ccc(Cl)cc3)nc12; n
COc1ccc2nc3c(n2c1)C(=O)C(=O)c1ccccc1-3; y
COc1cc2nc3c(=O)n(CCN(C)C)cnn3c(=O)c2cc1OC; n

Request: Please share the test call associated with `O=C(CSC(=S)N1CCCCC1)Nc1ccccc1` .
Response: n

Request: Please share the test call associated with `CN(C)[C@@H]1C(=O)C(C(N)=O)=C(O)[C@@]2(O)C(=O)C3=C(O)c4c(O)cc(CN5CCc6ccccc6C5)c(Cl)c4C[C@H]3C[C@@H]12` .
Response: y

Request: Please share the test call associated with `C[C@@H]1C(=O)[C@@H]2C[C@@H](O)[C@@H](O)C[C@]2(C)[C@H]2CC[C@@]3(C)C(=C12)CC[C@@H]3[C@@](C)(O)[C@H](O)CCC(C)(C)O` .
Response: n

Request: Please share the test call associated with `C=C1C(=O)O[C@H]2[C@H]1CC/C(COC(=O)CCCCCCC(=O)OC/C1=C/CC[C@@]3(C)O[C@H]3[C@H]3OC(=O)C(=C)[C@@H]3CC1)=C\CC[C@@]1(C)O[C@@H]21` .
Response: y

Request: Please share the test call associated with `CN1CCN(CC#CCOC(=O)CNC(=O)[C@]23CCC(C)(C)C[C@H]2C2=CC[C@@H]4[C@@]5(C)CC[C@H](O)C(C)(C)[C@@H]5CC[C@@]4(C)[C@]2(C)CC3)CC1` .
Response: n

Request: Please share the test call associated with `O=C1Nc2ccc(Cl)cc2/C1=N/c1nc(-c2ccc(F)cc2)cs1` .
Response: n
